# measurementProtocol: Particle size analysis (granulometry) by laser dispersion
# Assay type: physicochemical
# conditionInfo: dispersing fluid silicone oil
In this section we review reported D10 values for a set of compounds.
API: value field is a number in μm; no unit string.

compound: COC1=C(OC)C(=O)C(C/C=C(\C)CC/C=C(\C)CC/C=C(\C)CC/C=C(\C)CC/C=C(\C)CC/C=C(\C)CC/C=C(\C)CC/C=C(\C)CC/C=C(\C)CCC=C(C)C)=C(C)C1=O.COC1=C(OC)C(=O)C(C/C=C(\C)CC/C=C(\C)CC/C=C(\C)CC/C=C(\C)CC/C=C(\C)CC/C=C(\C)CC/C=C(\C)CC/C=C(\C)CC/C=C(\C)CCC=C(C)C)=C(C)C1=O.Oc1ccc(O)cc1 [Compound P57-VI, Ubiquinone:hydroquinone (2:1)]
valueMeasured: 1.69
//
compound: COC1=C(OC)C(=O)C(C/C=C(\C)CC/C=C(\C)CC/C=C(\C)CC/C=C(\C)CC/C=C(\C)CC/C=C(\C)CC/C=C(\C)CC/C=C(\C)CC/C=C(\C)CCC=C(C)C)=C(C)C1=O.O=C(O)c1ccc(O)cc1
valueMeasured: 2.51
//
compound: COC1=C(OC)C(=O)C(C/C=C(\C)CC/C=C(\C)CC/C=C(\C)CC/C=C(\C)CC/C=C(\C)CC/C=C(\C)CC/C=C(\C)CC/C=C(\C)CC/C=C(\C)CCC=C(C)C)=C(C)C1=O
valueMeasured: 5.19

Attention now shifts to the item below.
Incoming: Look up D10: COC1=C(OC)C(=O)C(C/C=C(\C)CC/C=C(\C)CC/C=C(\C)CC/C=C(\C)CC/C=C(\C)CC/C=C(\C)CC/C=C(\C)CC/C=C(\C)CC/C=C(\C)CCC=C(C)C)=C(C)C1=O.COC1=C(OC)C(=O)C(C/C=C(\C)CC/C=C(\C)CC/C=C(\C)CC/C=C(\C)CC/C=C(\C)CC/C=C(\C)CC/C=C(\C)CC/C=C(\C)CC/C=C(\C)CCC=C(C)C)=C(C)C1=O.O.Oc1cc(O)cc(O)c1
Outgoing: 9.46

----------
# measurementProtocol: Particle size analysis (granulometry) by laser dispersion
# Format: physicochemical
# conditionInfo: dispersing fluid silicone oil
measurementType: D50 (μm)
The reply should contain only the number, in μm.

Incoming: State the recorded D50 for this entry: COC1=C(OC)C(=O)C(C/C=C(\C)CC/C=C(\C)CC/C=C(\C)CC/C=C(\C)CC/C=C(\C)CC/C=C(\C)CC/C=C(\C)CC/C=C(\C)CC/C=C(\C)CCC=C(C)C)=C(C)C1=O.O=C(O)c1ccc(O)cc1
Outgoing: 18.2

----------
# measurementProtocol: Particle size analysis (granulometry) by laser dispersion
# Type: physicochemical
# conditionInfo: dispersing fluid silicone oil
# Experimental: Particle size can be determined, for example by laser dispersion on a Beckman Coulter LS13320 provided with a MLM (Micro Liquid Module) (measure range: 0.4 to 2000 μm; optic model: Fraunhofer.rdf, PIDS included). Particle size analysis (granulometry) was performed by laser dispersion on a Beckman Coulter LS13320 provided with a MLM (Micro Liquid Module) (measure range: 0.4 to 2000 μm; optic model: Fraunhofer.rdf, PIDS included). […]
measurementType: D10 (μm)
Give your result in μm as a bare value.

Incoming: Request the reported D10 associated with COC1=C(OC)C(=O)C(C/C=C(\C)CC/C=C(\C)CC/C=C(\C)CC/C=C(\C)CC/C=C(\C)CC/C=C(\C)CC/C=C(\C)CC/C=C(\C)CC/C=C(\C)CCC=C(C)C)=C(C)C1=O.COC1=C(OC)C(=O)C(C/C=C(\C)CC/C=C(\C)CC/C=C(\C)CC/C=C(\C)CC/C=C(\C)CC/C=C(\C)CC/C=C(\C)CC/C=C(\C)CC/C=C(\C)CCC=C(C)C)=C(C)C1=O.Cc1cc(O)cc(O)c1.Cc1cc(O)cc(O)c1.Cc1cc(O)cc(O)c1
Outgoing: 2.09
